- Test Name: Pharmacokinetics in mice, single oral dose (plasma, whole lung)
- Assay Conditions: female, CD-1, mouse, in vivo, po, 30 mg/kg, Caverage plasma, 1.5 h; single 30 mg/kg p.o., mice
Outcome Measure: concentration at 1.5 h (nM)
The reply should contain only the number, in nM.

Find the recorded concentration at 1.5 h belonging to "Clc1cc2cc(N3CCNCC3)ccc2nc1N1CCNCC1" and report it. 1300

----------
- Test Name: in vitro
- Format: cell-based
- Assay Conditions: mouse, BALB/3T3 cells, read-out: in vitro cytotoxicity CC50
Outcome Measure: CC50 at 24 h
# output: number + unit

Find the recorded CC50 at 24 h belonging to "Clc1cc2cc(N3CCNCC3)ccc2nc1N1CCNCC1" and report it. 48 µM

----------
- Tested on: K. pneumoniae AcrB^V448E
- Test Name: MIC of antibiotics with and without EPI (REMA), AcrB V448E mutant
- Assay type: cell-based, Klebsiella pneumoniae
- Assay Conditions: K. pneumoniae AcrB^V448E; + 100 µM PAβN
- Protocol: MIC experiments were carried out according to the CLSI guidelines (CLSI [2023]). Overnight cultures were diluted to an OD600 = 0.001 in CAMHB followed by addition of efflux pump inhibitors (EPIs) at a final concentration of 100 µM. […] Plates were incubated at 37 °C for up to 20 h. Bacterial viability was evaluated using the resazurin microtitre assay (REMA) and measured by fluorescence using a Tecan Spaert multimode plate reader (Ex: 530 nm Em: 590 nm). […]
Listing of recorded Minimum Inhibitory Concentration by entry.
The reply should contain only the number, in mg/L.

These recorded examples may help you get a feel for the data.
C[C@@H](O)[C@H]1C(=O)N2C(C(=O)O)=C(S[C@@H]3CN[C@H](C(=O)N(C)C)C3)[C@H](C)[C@H]12 ... 0.50
CC(C)(O/N=C(\C(=O)N[C@@H]1C(=O)N2C(C(=O)[O-])=C(C[n+]3ccccc3)CS[C@H]12)c1csc(N)n1)C(=O)O ... 0.53
CCN1CCN(C(=O)N[C@@H](C(=O)N[C@@H]2C(=O)N3[C@@H]2SC(C)(C)[C@@H]3C(=O)O)c2ccccc2)C(=O)C1=O ... 13

Next compound, please.
Find the recorded Minimum Inhibitory Concentration belonging to "CN(C)[C@@H]1C(O)=C(C(N)=O)C(=O)[C@@]2(O)C(O)=C3C(=O)c4c(O)cccc4[C@@](C)(O)[C@H]3C[C@@H]12" and report it. 2.7

----------
- Test Name: Pharmacokinetics in mice, single oral dose (plasma, whole lung)
- Assay Conditions: female, CD-1, mouse, in vivo, po, 30 mg/kg, Cmax plasma, single 30 mg/kg p.o., female CD-1 mice
Outcome Measure: Cmax (nM)
The reply should contain only the number, in nM.

Find the recorded Cmax belonging to Clc1cc2cc(N3CCNCC3)ccc2nc1N1CCNCC1 [compound 5] and report it. 2000

----------
- Test Name: Pharmacokinetics in mice, single oral dose (plasma, whole lung)
- Assay Conditions: female, CD-1, mouse, in vivo, po, 30 mg/kg, Caverage plasma, 2 h; single 30 mg/kg p.o., mice
Outcome Measure: concentration at 2 h (nM)
The reply should contain only the number, in nM.

Find the recorded concentration at 2 h belonging to "Clc1cc2cc(N3CCNCC3)ccc2nc1N1CCNCC1" and report it. 1800
